A compilation of published pKi results with Beta-secretase 2 (Homo sapiens).
Friendly reminder that pKi comes from taking -log10 of the concentration in mol/L.

Ask | Answer with the recorded pKi of `C[C@@]1(c2cc(NC(=O)c3ccc(C(F)(F)F)cn3)ccc2F)Cc2nc(C3CC3)ncc2C(=N)N1` only.
Reply | 7.47

Ask | Please look at this compound and report its pKi: `COc1ccc(C(=O)Nc2ccc(F)c([C@]3(C)CS(=O)(=O)C4(CN(C(C)=O)C4)C(=N)N3)c2)nc1`
Reply | 8.96

Ask | Given the compound `C[C@H]1C[C@@H]2[C@](c3cc(Oc4ncccc4F)ccc3F)(CO1)NC(=N)C(C)(C)S2(=O)=O` , write its reported pKi.
Reply | 8.31

Ask | Give the reported pKi for this compound. `C[C@@]1(c2cc(-c3cncc(C#N)c3)ccc2F)Cc2ncncc2C(=N)N1`
Reply | 6.32

---

Reported Ki on Beta-secretase 2 (Homo sapiens) for assorted molecules, compiled from publications.

Ask | System Beta-secretase 2 (Homo sapiens). Read-out Ki. Item `C[C@]1(c2sc(-c3cccc(-c4nnco4)c3)cc2Cl)NC(=N)c2cncnc2C1(F)F` . Report value.
Reply | 118 nM

Ask | Provide Ki, recorded with Beta-secretase 2 (Homo sapiens), of CN1C(=N)N[C@@]2(c3cc(Oc4ncncc4F)ccc3F)CO[C@@H](C3CC3)CC2C1=O (stereo partly shown)
Reply | 35 nM

Ask | Give Ki for this entry on Beta-secretase 2 (Homo sapiens): `CN1C(=N)N[C@](C)(c2cc(-c3nnc(-c4ncco4)o3)ccc2F)CS1(=O)=O`
Reply | 186 nM

Ask | Identify measured Ki obtained with Beta-secretase 2 (Homo sapiens) for `COCSC[C@H](NC(=O)OCc1nc(C)cs1)C(=O)N[C@H](CC(C)C)[C@@H](O)C[C@@H](C)C(=O)N[C@@H](C(=O)NCC(C)C)C(C)C` .
Reply | < 100 nM

Ask | Provide the reported Ki (system: Beta-secretase 2 (Homo sapiens)) for CC(NC(=O)c1cc(C(=O)NC(Cc2ccccc2)C(O)CNCc2cccnc2)cc(N(C)S(C)(=O)=O)c1)c1ccccc1 (stereo not shown)
Reply | 301 to 500 nM

Ask | // output Ki; input `COc1cc(C#N)cc(-c2cc(Cl)c([C@]3(C)CS(=O)(=O)C4(CCOCC4)C(=N)N3)s2)c1` ; system Beta-secretase 2 (Homo sapiens)
Reply | < 20 nM

Ask | // output Ki; input `CN1CCC2(CC1)C(=N)N[C@](C)(c1cc(NC(=O)c3ccc(OC(F)(F)F)cn3)ccc1F)CS2(=O)=O` ; system Beta-secretase 2 (Homo sapiens)
Reply | 52 nM

---

Literature compilation of pKi measurements on Beta-secretase 2 (Homo sapiens).
As a rule, pKi stands for the negative log10 of the concentration, concentration in M.

Ask | Name the value of pKi reported for `CC1(C)C(=N)N[C@@]2(CCCc3ccc(NC(=O)c4cnsn4)cc32)CS1(=O)=O` when tested on Beta-secretase 2 (Homo sapiens).
Reply | 8.15

Ask | Report value only: pKi, Beta-secretase 2 (Homo sapiens), `CC1(C)C(=N)N[C@@]2(CCOc3ccc(NC(=O)c4cnc(OCCF)cn4)cc32)CS1(=O)=O`
Reply | 7.01

Ask | // fetch pKi for `COc1cnc2c(Nc3ccc(F)c([C@]4(C)CS(=O)(=O)N(C)C(=N)N4)c3)nccc2n1` ; system: Beta-secretase 2 (Homo sapiens)
Reply | 8.46

Ask | Supply pKi measured with Beta-secretase 2 (Homo sapiens) for `COc1cccc2cc(-c3cc(Cl)c([C@]4(C)CS(=O)(=O)C5(CCCCC5)C(=N)N4)s3)[nH]c12` .
Reply | 8.70

Ask | For Beta-secretase 2 (Homo sapiens), give the measured pKi of the entry `C[C@@]1(c2cc(-c3cccnc3)ccc2F)Cc2ncncc2C(=N)N1`
Reply | 5.93

Ask | Under Beta-secretase 2 (Homo sapiens): report pKi of `CC1(C)C[C@@H]2[C@](c3cc(OCC4CC4)ccc3F)(CO1)NC(=N)C(C)(C)S2(=O)=O` .
Reply | 7.45
